Tested on: Lipid bilayer
Test: Binding affinity to DPPC liposomes assessed as melting temperature at 1:2 drug to DPPC liposome molar ratio by differential scanning calorimetric analysis
Record form. Attribute: Tm. Fill in for each entry.
Express it in °C; write the number only.

Find the measured Tm of C[C@@H](c1ncncc1F)[C@@](Cn1cncn1)(OC(=O)c1ccccc1)c1ccc(F)cc1F [VORICONAZOLE BENZOATE] and report it.
39.5

Find the measured Tm of C[C@@H](c1ncncc1F)[C@@](Cn1cncn1)(OC(=O)c1ccc([N+](=O)[O-])cc1)c1ccc(F)cc1F [VORICONAZOLE P-NITRO BENZOATE] and report it.
59.6

Find the measured Tm of `C[C@@H](c1ncncc1F)[C@](O)(Cn1cncn1)c1ccc(F)cc1F` and report it.
37.4

Find the measured Tm of Cc1ccc(C(=O)O[C@@](Cn2cncn2)(c2ccc(F)cc2F)[C@@H](C)c2ncncc2F)cc1 [VORICONAZOLE TOLUATE] and report it.
32.4

Find the measured Tm of COc1ccc(C(=O)O[C@@](Cn2cncn2)(c2ccc(F)cc2F)[C@@H](C)c2ncncc2F)cc1 [VORICONAZOLE P-METHOXY BENZOATE] and report it.
38.3
